- Organism: Rattus norvegicus
- Test Description: Compound was found to have no effect on the release or uptake of serotonin at in rat brain synaptosomes; Inactive
- Assay type: functional

{"Smiles": "Cl.c1ccc(COC[C@H]2COCCN2)cc1", "IC50": "> 10 µM"}
